Reference source for all entries: ChEMBL document CHEMBL1201862

- Test system: HOP-62
- assayText: NCI tumour cell line growth inhibition, 48 h
The source made the active and inactive calls. Rule as the data show it: active = GI50 up to about 1.1 µM and inactive = higher.
Would you mind answering with one of these outcomes? label 1 (active), label 0 (inactive)

molecule: Nc1ncnc2c1ncn2C1C=CC(COS(N)(=O)=O)C1 (stereo unspecified)
classification: label 0
--
molecule: N/C1=C/C(=O)NC(=O)c2c(c3ccccc3oc2=O)C1
classification: label 0
--
molecule: Cc1c(C(=O)c2ccc(N)c3ccccc23)c2ccccc2n1CCN1CCOCC1
classification: label 0
--
molecule: CN(C)CCNC1=Nc2ccccc2C(=O)N2CSCC12 (stereo unspecified)
classification: label 0

Input: // param item: "CSc1ccc2c(c1)N(CCCN(C)C)c1ccccc1S2" ; yields the recorded call
Output: label 0

Input: What about "COc1ccc2nc3c4c(nccc4c2c1)-c1ncccc1C3=O" ?
Output: label 1

Input: What about "O=c1c(-c2ccccc2)c(SCCN2CCOCC2)n(-c2ccccc2)c(=S)n1-c1ccccc1" ?
Output: label 0

Input: What about NC1CC(=O)c2c1sc(Cl)c2Cl (stereo unspecified) ?
Output: label 0

Input: What about "O=C(CCc1cc(-c2ccccc2)[nH]c(=S)n1)Nc1ccccc1[N+](=O)[O-]" ?
Output: label 0

Input: What about "CC(C)(C)OC(=O)N/N=C(/N)Cc1ccc(Cl)cc1" ?
Output: label 0

Input: What about CCOC(=O)C1C(=O)CC(C)(O)C(C(=O)OCC)C1c1ccc(N(C)C)cc1 (stereo unspecified) ?
Output: label 0
